# TARGET UNDER TEST: Mitochondrial complex I; NADH oxidoreductase (Bos taurus, UniProt P25708+P52505)
# Sequence (P25708 21-464 limits assumed, other chains not shown): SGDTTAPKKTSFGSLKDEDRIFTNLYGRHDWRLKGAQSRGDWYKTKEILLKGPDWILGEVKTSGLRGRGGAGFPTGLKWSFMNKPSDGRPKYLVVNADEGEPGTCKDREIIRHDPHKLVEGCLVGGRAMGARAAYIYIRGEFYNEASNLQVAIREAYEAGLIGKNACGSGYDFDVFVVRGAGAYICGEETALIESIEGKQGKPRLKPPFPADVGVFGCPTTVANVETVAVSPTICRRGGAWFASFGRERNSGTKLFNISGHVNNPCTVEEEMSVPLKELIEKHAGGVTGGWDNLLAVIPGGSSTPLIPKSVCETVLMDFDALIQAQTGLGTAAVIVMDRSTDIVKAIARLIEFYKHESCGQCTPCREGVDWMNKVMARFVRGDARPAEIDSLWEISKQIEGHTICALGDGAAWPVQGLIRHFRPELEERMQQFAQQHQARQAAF
# TEST METHOD NOTES: Compound was tested for NADH oxidase activity in bovine heart submitochondrial particles
MEASURED PROPERTY: IC50
Units required after the number.

{"COMPOUND STRING": "CCO[C@H]1[C@@H](OC(C)=O)[C@H](OC(C)=O)[C@@H](c2ccccc2)OC(=O)C[C@H]1OCC", "TARGET UNDER TEST": "Mitochondrial complex I; NADH oxidoreductase (Bos taurus, UniProt P25708+P52505)", "MEASURED PROPERTY": "IC50", "VAL": "3.9 µM"}

Lab note: next compound to report on.
Field: IC50 (Mitochondrial complex I; NADH oxidoreductase (Bos taurus, UniProt P25708+P52505)). Entry: CCO[C@H]1[C@@H](O)[C@H](O)[C@@H](c2ccccc2)OC(=O)C[C@H]1OCC
4.4 µM
